Molecular target: T1, mStau2 dsRBD1-2 F157A (Mus musculus, UniProt Q8CJ67 8-181, F157A)
T1 sequence: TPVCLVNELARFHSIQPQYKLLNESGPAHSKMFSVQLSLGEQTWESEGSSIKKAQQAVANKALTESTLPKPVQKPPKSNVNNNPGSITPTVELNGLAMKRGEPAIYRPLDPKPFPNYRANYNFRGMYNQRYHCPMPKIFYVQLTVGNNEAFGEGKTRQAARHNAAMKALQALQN
Assay: SPR; Hill n 1.5; stable kinetics; SPR: HBS-EP (10 mM HEPES pH 7.4, 150 mM NaCl, 3 mM EDTA, 0.005% P20); EMSA: 5 nM RNA, protein buffer (40 mM Bis-Tris pH 7, 150 mM NaCl, 2 mM DTT presumed), 4% glycerol, 30 ug/mL yeast tRNA, RT; NMR: 150 mM NaCl, 20 mM Na phosphate pH 7.0, 5 mM DTT, 298 K
Conditions: protein: recombinant; label: 5' 32P (EMSA); biotin (SPR); hairpin, 18 bp stem
MEASUREMENT LABEL: pKd
Lab note — pKd values are minus log10 of concentrations in M.

The binder listed as GGUAUAUACAUGCACAUGCAAUUUGUGUAUGUGUAUGUAUAUA (structured_RNA) [SRS2+5] has a reported pKd of 6.30
